The measured values listed here are drawn from the supplement of paper PMC10307832.

tested on: NCI-H838; test: relative viability (nuclei count vs DMSO), 5 days (fraction); higher = more cells survive; details: first compound 6.325 µM
Criterion: relative viability strictly less than 0.3. Met: condition met. Not met: condition not met.

Previously resolved entries follow.
COCC1(CO)C(=O)C2CCN1CC2 (configuration not stated) [PRIMA-1MET] + CS(=O)(=O)N1CCN(Cc2cc3nc(-c4cccc5[nH]ncc45)nc(N4CCOCC4)c3s2)CC1 [Pictilisib] (partner 1 µM): condition not met
COCC1(CO)C(=O)C2CCN1CC2 (configuration not stated) [PRIMA-1MET] + C[C@]1(O)C[C@@H](c2nc(-c3ccc4ccc(-c5ccccc5)nc4c3)c3c(N)nccn32)C1 [Linsitinib] (partner 1 µM): condition not met
COCC1(CO)C(=O)C2CCN1CC2 (configuration not stated) [PRIMA-1MET] + CCNC(=O)c1noc(-c2cc(C(C)C)c(O)cc2O)c1-c1ccc(CN2CCOCC2)cc1 [Luminespib] (partner 0.01 µM): condition met
COCC1(CO)C(=O)C2CCN1CC2 (configuration not stated) [PRIMA-1MET] + CC(=O)c1c(C)c2cnc(Nc3ccc(N4CCNCC4)cn3)nc2n(C2CCCC2)c1=O [Palbociclib] (partner 0.5 µM): condition met
COCC1(CO)C(=O)C2CCN1CC2 (configuration not stated) [PRIMA-1MET] + Nc1nc2[nH]cc(CCc3ccc(C(=O)N[C@@H](CCC(=O)O)C(=O)O)cc3)c2c(=O)[nH]1 [Pemetrexed] (partner 0.2 µM): condition met

Enquiry: Could you please tell me whether relative viability recorded for COCC1(CO)C(=O)C2CCN1CC2 (configuration not stated) [PRIMA-1MET] + CC(=O)Nc1cccc(-n2c(=O)n(C3CC3)c(=O)c3c(Nc4ccc(I)cc4F)n(C)c(=O)c(C)c32)c1 [Trametinib] (partner 0.02 µM) is less than 0.3?
Return: condition not met

Enquiry: Confirm or reject: relative viability of COCC1(CO)C(=O)C2CCN1CC2 (configuration not stated) [PRIMA-1MET] + CC1(C)CCC(c2ccc(Cl)cc2)=C(CN2CCN(c3ccc(C(=O)NS(=O)(=O)c4ccc(N[C@H](CCN5CCOCC5)CSc5ccccc5)c(S(=O)(=O)C(F)(F)F)c4)cc3)CC2)C1 [Navitoclax] (partner 0.5 µM) lies strictly below 0.3
Return: condition not met
